Test system: PPARg DBDmut IVT, anti-PPARg (DBD mutation: PPARg1 K132A/R137A, NR concentration 270 nM)
Test: PBM binding z-score (relative to random genomic background probes); higher = stronger binding; sequences stand for … in GC…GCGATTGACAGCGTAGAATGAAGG
// class assignment uses PBM binding z-score with these ranges: band 1 (below -0.1), band 2 (-0.1 to below 0.5), band 3 (0.5 or more)

seq_text=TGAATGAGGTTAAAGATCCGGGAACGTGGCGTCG classification="band 2"
seq_text=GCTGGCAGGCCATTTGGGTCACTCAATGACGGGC classification="band 1"
seq_text=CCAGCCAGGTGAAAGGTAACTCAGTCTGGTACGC classification="band 1"
seq_text=CCAGACGGGTGAAAGGTAACTCAGTCTGGTACGC classification="band 1"
seq_text=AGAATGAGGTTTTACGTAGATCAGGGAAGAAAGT classification="band 3"
seq_text=TCTAGTAGATCAACAGGAGGTTAAGAAAGATCGA classification="band 1"
seq_text=TAGCCTAGGTCAGATCGGGCCAGTAGACGCTATA classification="band 1"
seq_text=TCTTGTAGATCAATAGAGGTTGAGAAAGTGCGCT classification="band 2"
seq_text=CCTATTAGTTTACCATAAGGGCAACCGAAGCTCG classification="band 3"
seq_text=CGAACTAGGTCAGAACATGACAGTGAAGGATGAT classification="band 3"
seq_text=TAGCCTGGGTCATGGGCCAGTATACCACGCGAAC classification="band 1"
seq_text=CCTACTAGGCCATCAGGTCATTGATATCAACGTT classification="band 2"
seq_text=AGAATGAGGTTACAAAAGATCAGGGAAACGCTTG classification="band 3"
seq_text=GCATATAGGTAATGCAAGGTGAAAGTCCGATTGT classification="band 3"
seq_text=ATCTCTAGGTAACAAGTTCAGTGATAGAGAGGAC classification="band 3"
seq_text=TGATATAGGTAAACAGGTGAAAGTCCGTAAGTTA classification="band 2"
seq_text=ACTTACGGGTCAACGAGGTTACAGCACGCGTATA classification="band 3"
seq_text=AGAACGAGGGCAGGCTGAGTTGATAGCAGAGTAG classification="band 2"
seq_text=GTACCAAGGTGAATAGGGCGTTGATGAGTAGGCG classification="band 2"
seq_text=TAGCCTAGGTCATTGGGCCAGTATCGTACGCATC classification="band 1"
seq_text=ATTTCTAGGTAAAGTTCAGTGAAAGATCGATAGA classification="band 3"
seq_text=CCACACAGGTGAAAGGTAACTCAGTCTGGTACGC classification="band 2"
seq_text=TCGCGGAGGACACGAAGGTCAGAGCTTTCCAGAG classification="band 1"
seq_text=ACTAGCAGGCCAAGGGTCACTTAAGATTAGTCCG classification="band 1"
seq_text=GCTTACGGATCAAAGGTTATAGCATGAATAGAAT classification="band 2"

====

Tested on: RARb:RXRa (NR concentration 270 nM, RXRa partner concentration 90 nM)
Test: PBM binding z-score (relative to random genomic background probes); higher = stronger binding; sequences stand for … in GC…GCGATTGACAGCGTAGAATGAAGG
assay_metric: PBM binding z-score

seq_text=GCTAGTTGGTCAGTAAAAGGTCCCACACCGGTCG assay_metric="PBM binding z-score" measured_result=0.845
seq_text=GTGACTGGGGCAAAGCAGGTTACCATAAGGTTGG assay_metric="PBM binding z-score" measured_result=1.14
seq_text=CCGACTGGGGCAGAACGGTTACCATACCATCCGG assay_metric="PBM binding z-score" measured_result=0.227
seq_text=CCTCGGAGGACAGAAGGTCAGAACTGTCCGCTTT assay_metric="PBM binding z-score" measured_result=2.85
seq_text=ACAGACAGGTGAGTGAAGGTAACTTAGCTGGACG assay_metric="PBM binding z-score" measured_result=0.486
seq_text=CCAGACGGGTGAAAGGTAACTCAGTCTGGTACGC assay_metric="PBM binding z-score" measured_result=0.652
seq_text=TCTATTAGTTGAAGGCCAACCGACGAGTCCGTTT assay_metric="PBM binding z-score" measured_result=1.02
seq_text=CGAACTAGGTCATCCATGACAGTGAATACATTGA assay_metric="PBM binding z-score" measured_result=3.98
seq_text=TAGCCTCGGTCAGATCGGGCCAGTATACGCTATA assay_metric="PBM binding z-score" measured_result=1.78
seq_text=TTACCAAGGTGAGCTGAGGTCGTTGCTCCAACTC assay_metric="PBM binding z-score" measured_result=1.74
seq_text=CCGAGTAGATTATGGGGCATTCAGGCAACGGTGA assay_metric="PBM binding z-score" measured_result=0.0647
seq_text=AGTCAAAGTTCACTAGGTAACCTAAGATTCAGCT assay_metric="PBM binding z-score" measured_result=4.7
seq_text=GCAGACAGGTGAAACGCAAGTAACTCAGGGTGGC assay_metric="PBM binding z-score" measured_result=0.562
seq_text=ACTATTTGTTGACTTAGGGCAACCGATACGACGC assay_metric="PBM binding z-score" measured_result=1.03
seq_text=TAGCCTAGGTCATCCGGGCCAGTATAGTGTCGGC assay_metric="PBM binding z-score" measured_result=3.77
seq_text=ATATGTTGGTTATCGGGTCATTCAGTTTGCGCAT assay_metric="PBM binding z-score" measured_result=2.05
seq_text=AGAATGAGGTTACCAAAGATCAGAGAAACGCTTG assay_metric="PBM binding z-score" measured_result=2.09
seq_text=TGTCAAAGTTCAAAAGTAACGTAAGTATCCACAC assay_metric="PBM binding z-score" measured_result=4.6
seq_text=CGAACGAGGGCATGAGTTGATCGCAAATGCCGAT assay_metric="PBM binding z-score" measured_result=1.86
seq_text=TCTATTAGTTGAAGGGCAACGGACGAGTCCGTTT assay_metric="PBM binding z-score" measured_result=1.76
seq_text=AGTCAAAGTTCATCTAAGTAACGTAAGATATGCT assay_metric="PBM binding z-score" measured_result=5.03
seq_text=TCTAGTAGATCAGCAGGTTAAGAAAGCTGGCCAA assay_metric="PBM binding z-score" measured_result=0.266
seq_text=GGAACGAGGCCAAAGTTGATAGCATCTGTCGACG assay_metric="PBM binding z-score" measured_result=1.33
seq_text=ATTCCAAGGTGATCGTGAGGTCGTTGATACTAAC assay_metric="PBM binding z-score" measured_result=1.33
seq_text=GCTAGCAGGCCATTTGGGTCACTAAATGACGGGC assay_metric="PBM binding z-score" measured_result=1.42
seq_text=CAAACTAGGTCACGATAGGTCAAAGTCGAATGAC assay_metric="PBM binding z-score" measured_result=4.88

====

Test system: PPARg:RXRa 270nM:90nM, anti-RXR (NR concentration 270 nM, RXRa partner concentration 90 nM)
Assay: PBM binding z-score (relative to random genomic background probes); higher = stronger binding; sequences stand for … in GC…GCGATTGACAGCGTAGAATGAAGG
assay_metric: PBM binding z-score

seq_text=AGAACGAGGGCACGCTGAGTTCATAGCAGAGTAG assay_metric="PBM binding z-score" measured_result=2.43
seq_text=AGAACGAGGGCACGGTGAGTTGATAGCAGAGTAG assay_metric="PBM binding z-score" measured_result=2.19
seq_text=ATATGTAGTTTACATCCGGGTCATTCAGGCTATG assay_metric="PBM binding z-score" measured_result=1.19
seq_text=AAATGTAGGTTAGCTGGGGTCATTCAGACTAGGC assay_metric="PBM binding z-score" measured_result=5.77
seq_text=CAAACTAGGTTAAAGGTCAAAGTCGAGCCAACCA assay_metric="PBM binding z-score" measured_result=11
seq_text=GCAGACAGGTAAAACGCAGGTAACTCAGGGTGGC assay_metric="PBM binding z-score" measured_result=-0.433

====

System: PXR:RXRa (NR concentration 270 nM, RXRa partner concentration 90 nM)
Experiment: PBM binding z-score (relative to random genomic background probes); higher = stronger binding; sequences stand for … in GC…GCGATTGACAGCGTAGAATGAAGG
assay_metric: PBM binding z-score

seq_text=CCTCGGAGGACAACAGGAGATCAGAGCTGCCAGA assay_metric="PBM binding z-score" measured_result=-0.68
seq_text=CCTAGTTGGTCAAGGTCACCCACGCTATAGGTAC assay_metric="PBM binding z-score" measured_result=4.16
seq_text=CAAACTAGGTCACGAAAGATCAAAGTCGAATGAC assay_metric="PBM binding z-score" measured_result=2.88
seq_text=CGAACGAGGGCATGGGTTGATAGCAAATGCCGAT assay_metric="PBM binding z-score" measured_result=0.517
seq_text=CCGACTGGGGCATAAAGTTACCATAAGCCAGCCC assay_metric="PBM binding z-score" measured_result=-0.621
seq_text=CAAACTAGGTCACGAAAGGTCAAGGTCGAATGAC assay_metric="PBM binding z-score" measured_result=6.88
seq_text=GATACAGGGTCAGCTAGAGGCCAGTGTATGGAAA assay_metric="PBM binding z-score" measured_result=3.29
seq_text=CCTTACGGGTCACTGTCAGGTTATAGCATTTGGA assay_metric="PBM binding z-score" measured_result=3.99
seq_text=TCGAGTAGGTTACCACTGGGGCATTCAGCTTTCT assay_metric="PBM binding z-score" measured_result=-0.159
seq_text=TGAATGAGGTTAAAGAACAGGGAACGTGGCGTCG assay_metric="PBM binding z-score" measured_result=1.13
seq_text=GCGACTGGGGCATCAGCAGTTTACCATAACTTAA assay_metric="PBM binding z-score" measured_result=0.227
seq_text=CCTACTGGGCCATCAGATCATTGATATCAACGTT assay_metric="PBM binding z-score" measured_result=-0.487
